target-desc: T1, orthogonal hCD122 receptor (hoRb), hCD122 with H133D and Y134F (human, UniProt P14784 27-550)
T1 sequence: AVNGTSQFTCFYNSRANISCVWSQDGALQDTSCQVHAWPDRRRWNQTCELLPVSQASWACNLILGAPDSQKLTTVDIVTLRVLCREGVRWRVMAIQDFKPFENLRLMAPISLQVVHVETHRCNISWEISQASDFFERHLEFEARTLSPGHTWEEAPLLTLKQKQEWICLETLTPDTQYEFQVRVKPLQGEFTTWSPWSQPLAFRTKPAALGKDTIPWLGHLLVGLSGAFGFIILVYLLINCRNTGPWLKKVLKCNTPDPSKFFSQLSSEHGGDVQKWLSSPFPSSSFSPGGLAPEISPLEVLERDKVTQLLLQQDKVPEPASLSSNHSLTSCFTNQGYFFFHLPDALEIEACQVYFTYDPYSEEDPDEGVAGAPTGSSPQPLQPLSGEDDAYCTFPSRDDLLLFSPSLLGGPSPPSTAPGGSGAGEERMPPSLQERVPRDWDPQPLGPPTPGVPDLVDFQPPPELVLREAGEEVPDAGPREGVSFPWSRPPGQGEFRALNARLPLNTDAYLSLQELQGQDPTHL
assay-notes: cell-based or functional assay
quantity: NKL Ortho Proliferation Signal 1:10

binder="F42K, SQVLKA (ligand) APTSSSTKKTQLQLSQLLVLLKAILNGINNYKNPKLTRMLTKKFYMPKKATELKHLQCLEEELKPLEEVLNLAQSKNFHLRPRDLISNINVIVLELKGSETTFMCEYADETATIVEFLNRWITFCQSIISTLT" numeric_value=10500
binder="T3R, SQVLKA (ligand) APRSSSTKKTQLQLSQLLVLLKAILNGINNYKNPKLTRMLTFKFYMPKKATELKHLQCLEEELKPLEEVLNLAQSKNFHLRPRDLISNINVIVLELKGSETTFMCEYADETATIVEFLNRWITFCQSIISTLT" numeric_value=40700

[a] R81I, SQVLKA (ligand) APTSSSTKKTQLQLSQLLVLLKAILNGINNYKNPKLTRMLTFKFYMPKKATELKHLQCLEEELKPLEEVLNLAQSKNFHLIPRDLISNINVIVLELKGSETTFMCEYADETATIVEFLNRWITFCQSIISTLT
[b] L18E, SQVLKA (ligand) APTSSSTKKTQLQLSQLEVLLKAILNGINNYKNPKLTRMLTFKFYMPKKATELKHLQCLEEELKPLEEVLNLAQSKNFHLRPRDLISNINVIVLELKGSETTFMCEYADETATIVEFLNRWITFCQSIISTLT
// max by NKL Ortho Proliferation Signal 1:10 over [ a , b ] API: response body contains the label of the selected item.
a
(a: 58000, b: 9060)

// provenance: patent US20210196796A1
